Quick reference: pIC50 of the listed items.
Test system: HCV RNA replicon in ET (luc-ubi-neo/ET) Huh7 cells
experimental setup: read-out: antiviral IC50; 72 h, replicon-derived Luc activity
API: returns pIC50 as number; meaning -log10 of concentration in mol/L.

Cu-GGHGAALEAKICHQIEYYFGDF    5.20
Cu-GGHYrFKGGGYGRKKRRQRRR    5.73
Cu-GGHGKYKETDLLILFKDDYFAKKNEERKKDEL    6.12
Cu-GGHGYrFKGGGKDEL    6.04
Cu-GGHGYrFKGGGYGRKKRRQRRR    6.02
Cu-GGHAALEAKICHQIEYYFGDF    5.46

Data request: Write down measured pIC50 (HCV RNA replicon in ET (luc-ubi-neo/ET) Huh7 cells) for this substance. Cu-GGHGKYKETDLLILFKDDYFAKKNEERK
Data returned: 6.26

Data request: Write down measured pIC50 (HCV RNA replicon in ET (luc-ubi-neo/ET) Huh7 cells) for this substance. Cu-GGHKYKETDLLILFKDDYFAKKNEERKYGRKKRRQRRR
Data returned: 6.08

====

system: stem loop IV HCV IRES RNA
Format: binding, hepatitis C virus (HCV)
Where no end group is shown, it is not given here.
Quick reference: pKd of the listed items.
API: returns pKd as number; meaning -log10 of concentration in mol/L.

Cu-GGHKYKETDLLILFKDDYFAKKNEERK-amide    5.15

Attention now turns to another entry.
Data request: Please report the measured pKd for Cu-GGHYRFK-amide (GGHYRFK-NH2; also: Cu complex)
Data returned: 5.16

====

system: Recombinant human somatic ACE (sACE-1) (Homo sapiens, UniProt P12821)
Construct: sACE-1: Leu30-Leu1261, with C-terminal His tag; His tag (C); purchased R&D Systems; host or cells: NS0-derived murine myeloma cell line
Sequence (P12821 30-1261): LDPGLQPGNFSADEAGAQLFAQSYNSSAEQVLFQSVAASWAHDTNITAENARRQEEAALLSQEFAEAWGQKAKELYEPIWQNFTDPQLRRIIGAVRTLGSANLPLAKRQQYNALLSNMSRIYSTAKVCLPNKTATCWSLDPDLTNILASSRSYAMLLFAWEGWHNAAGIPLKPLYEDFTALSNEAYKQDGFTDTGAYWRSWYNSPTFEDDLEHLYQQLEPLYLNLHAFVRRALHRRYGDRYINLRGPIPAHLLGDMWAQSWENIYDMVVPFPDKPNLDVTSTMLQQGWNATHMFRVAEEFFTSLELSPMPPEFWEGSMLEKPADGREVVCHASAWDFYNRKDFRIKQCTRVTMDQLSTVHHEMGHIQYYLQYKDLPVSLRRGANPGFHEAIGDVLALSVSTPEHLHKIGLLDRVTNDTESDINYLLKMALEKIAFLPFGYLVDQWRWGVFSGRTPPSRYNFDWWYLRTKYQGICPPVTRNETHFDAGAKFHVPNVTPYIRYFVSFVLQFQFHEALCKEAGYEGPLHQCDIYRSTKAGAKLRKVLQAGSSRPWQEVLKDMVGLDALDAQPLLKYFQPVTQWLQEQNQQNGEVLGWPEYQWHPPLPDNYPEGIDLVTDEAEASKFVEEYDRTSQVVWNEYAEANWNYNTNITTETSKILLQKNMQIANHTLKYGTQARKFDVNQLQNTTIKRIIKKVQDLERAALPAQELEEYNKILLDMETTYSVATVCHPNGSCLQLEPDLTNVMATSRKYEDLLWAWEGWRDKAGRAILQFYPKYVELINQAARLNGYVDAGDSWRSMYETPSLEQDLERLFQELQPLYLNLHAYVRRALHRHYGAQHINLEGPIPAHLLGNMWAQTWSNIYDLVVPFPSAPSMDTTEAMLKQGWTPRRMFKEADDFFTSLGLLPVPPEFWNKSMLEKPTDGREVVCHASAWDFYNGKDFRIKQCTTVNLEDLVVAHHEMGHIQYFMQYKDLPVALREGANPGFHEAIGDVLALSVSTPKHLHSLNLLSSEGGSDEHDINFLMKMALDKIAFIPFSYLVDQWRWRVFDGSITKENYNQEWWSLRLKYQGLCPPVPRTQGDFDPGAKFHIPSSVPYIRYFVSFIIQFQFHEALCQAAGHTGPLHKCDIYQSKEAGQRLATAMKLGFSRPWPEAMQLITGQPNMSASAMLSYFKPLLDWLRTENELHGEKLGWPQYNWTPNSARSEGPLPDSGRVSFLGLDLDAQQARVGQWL
test name: Determination of IC50 values, sACE-1 fluorogenic substrate cleavage
Assay type: biochemical
Where a SMILES comes first, the peptide text is derived from it.
reported metric: pIC50
API: returns pIC50 as number; meaning -log10 of concentration in mol/L.

Data request: Please report the measured pIC50 for NCC(=O)NCC(=O)N[C@@H](Cc1c[nH]cn1)C(=O)O [Cu-GGH] (H-Gly-Gly-His-OH)
Data returned: 4.77

====

System: pUC19 plasmid DNA
test name: DNA nicking and linearization nuclease assay
Format: biochemical
experimental setup: 10 μM base pairs pUC19; ascorbate/peroxide; — = Below detection limit
// boundary case: knick for DNA nicking, without attached Rev (M-chelate) equal to 0.06 min⁻¹ maps to criterion not met; strictly smaller maps to criterion met

O=C(O)CN(CCN(CC(=O)O)CC(=O)O)CC(=O)O.[Ni]    criterion met

Data request: Strictly below 0.06 min⁻¹ in knick for DNA nicking, without attached Rev (M-chelate)? O=C([O-])CN(CCN(CC(=O)[O-])CC(=O)[O-])CC(=O)[O-].[Fe+3]
Data returned: criterion met

Data request: Strictly below 0.06 min⁻¹ in knick for DNA nicking, without attached Rev (M-chelate)? O=C([O-])CN(CC(=O)[O-])CC(=O)O.[Cu+2]
Data returned: criterion not met

Data request: Strictly below 0.06 min⁻¹ in knick for DNA nicking, without attached Rev (M-chelate)? O=C([O-])CN(CC(=O)[O-])CC(=O)[O-].[Fe+3]
Data returned: criterion met
